test system: SKBR3 (PI3Kα-Wild Type) cell line; experiment: HTRF phospho-AKT(S473) cell assay in SKBR3 cells; type: cell-based, human; conditions: Homo sapiens, SK-BR-3; SKBR3 (PI3Kα-Wild Type) cells, HTRF phospho-AKT(S473), 2 hours compound incubation, PDGF-BB stimulated
pIC50: −log10 of the molar value.
Readings of pIC50 for the listed compounds

Here is how some compounds turned out for pIC50.
INSERT INTO assay_data (compound, system_tested, observed_property, result) VALUES
  ('Cc1cc([C@@H](C)Nc2ccc(Cl)nc2C(=O)NS(C)(=O)=O)c2nc(N3CCC[C@@H](c4ccccn4)C3)n(C)c(=O)c2c1 (relative stereo) [Compound 208]', 'SKBR3 (PI3Kα-Wild Type) cell line', 'pIC50', '≤ 5.30'),
  ('Cc1cc([C@@H](C)Nc2ccc(Cl)nc2C(=O)NS(C)(=O)=O)c2nc(N3CCC(n4cc(-c5cnc(C)cn5)cn4)CC3)n(C)c(=O)c2c1 [Compound 270]', 'SKBR3 (PI3Kα-Wild Type) cell line', 'pIC50', '≤ 5.30'),
  ('Cc1cc([C@@H](C)Nc2ccc(Cl)nc2C(=O)NS(C)(=O)=O)c2nc(N3Cc4cnn(-c5ccc(C#N)cc5)c4C3)n(C)c(=O)c2c1 [Compound 240]', 'SKBR3 (PI3Kα-Wild Type) cell line', 'pIC50', '5.30 to 6.00');

Q) For the compound shown here, C[C@@H](Nc1ccc(Cl)nc1C(=O)NS(C)(=O)=O)c1cccc2c(=O)n(C)c(N3CCC(F)(F)CC3)nc12 [Compound 39] , give the reported pIC50.
A) 5.30 to 6.00

Q) For the compound Cc1cc([C@@H](C)Nc2ccc(Cl)nc2C(=O)NS(C)(=O)=O)c2nc(N3CCC4(CCc5c(cnn5C)C4)CC3)n(C)c(=O)c2c1 [Compound 344] , what pIC50 is on record?
A) ≤ 5.30

Q) Name the reported pIC50 value associated with the compound Cc1cc([C@@H](C)Nc2ccc(Cl)nc2C(=O)NS(C)(=O)=O)c2nc(N3CCC(c4c(C)cnn4C)CC3)n(C)c(=O)c2c1 [Compound 427]
A) 5.30 to 6.00

Q) Need pIC50, item Cc1cc([C@@H](C)Nc2ccc(Cl)nc2C(=O)NS(C)(=O)=O)c2nc(N3CCC3)n(C)c(=O)c2c1 [Compound 15]
A) 5.30 to 6.00

Q) pIC50 for C[C@@H](Nc1ccc(Cl)nc1C(=O)NS(C)(=O)=O)c1cc(F)cc2c(=O)n(C)c(N3CCc4c(cnn4C)C3)nc12 [Compound 30] ?
A) 5.30 to 6.00

Q) Item under review: Cc1cc([C@@H](C)Nc2ccc(Cl)nc2C(=O)NS(C)(=O)=O)c2nc(C3CCN(c4nn(C)cc4F)CC3)n(C)c(=O)c2c1 [Compound 429] . Reported pIC50?
A) ≤ 5.30

Q) # lookup: pIC50 of Cc1cc([C@@H](C)Nc2ccc(Cl)nc2C(=O)NS(C)(=O)=O)c2nc(N3Cc4cn(C5COC5)nc4C3)n(C)c(=O)c2c1 [Compound 290]
A) 5.30 to 6.00

Q) Entry Cc1cc([C@@H](C)Nc2cc(C)c(F)nc2C(=O)NS(C)(=O)=O)c2nc(N3Cc4ccc(F)cc4C3)n(C)c(=O)c2c1 [Compound 69] has what pIC50?
A) ≤ 5.30

Q) // pIC50 lookup, key: Cc1cc([C@@H](C)Nc2ccc(Cl)nc2C(=O)NS(C)(=O)=O)c2nc(N3C[C@@H]4C[C@H]3C[C@@H]4c3ccn(C)n3)n(C)c(=O)c2c1 (relative stereo) [Compound 356]
A) 5.30 to 6.00
